# System: Plasmodium falciparum NF54-HGL (transmission to Anopheles stephensi)
# test_protocol: percentage of barcode signal found in uninfected mosquitoes (transmission-blocking activity); higher = stronger blocking of transmission to mosquito, active = 80 or more
# settings: 20 µM; gametocyte preincubation time 24 h; readout time post-feed 8 days
// reported percentage of barcode signal found in uninfected mosquitoes per item
The response must be a number in % with no trailing unit.

Exercise: Item: COc1ccc(C2=NCCN2)cc1-c1cn(-c2cccc(C3=NCCN3)c2)nn1 Test system: Plasmodium falciparum NF54-HGL (transmission to Anopheles stephensi) Read-out: percentage of barcode signal found in uninfected mosquitoes Value: ?
Key: 16.8

Exercise: Item: CC(C)(C(=O)Nc1ccc(F)cc1)n1cc(-c2ccccc2F)cn1 Test system: Plasmodium falciparum NF54-HGL (transmission to Anopheles stephensi) Read-out: percentage of barcode signal found in uninfected mosquitoes Value: ?
Key: 0.429

Exercise: Item: COc1cc(NC(=O)Cc2nn(C)c(=O)c3ccccc23)ccc1Cl Test system: Plasmodium falciparum NF54-HGL (transmission to Anopheles stephensi) Read-out: percentage of barcode signal found in uninfected mosquitoes Value: ?
Key: 9.49

Exercise: Item: CC(=O)N1CCN(c2ccc(Oc3ccc(Cl)cc3O)cc2)CC1 Test system: Plasmodium falciparum NF54-HGL (transmission to Anopheles stephensi) Read-out: percentage of barcode signal found in uninfected mosquitoes Value: ?
Key: 23.4

Exercise: Item: COc1cccc(-c2nc3c(N4CCCC4)cccc3n2CC2CCCN2)n1 (centres undefined) Test system: Plasmodium falciparum NF54-HGL (transmission to Anopheles stephensi) Read-out: percentage of barcode signal found in uninfected mosquitoes Value: ?
Key: 68

Exercise: Item: O=C(Nc1ccccc1-c1nc2c(C(=O)O)cccc2o1)c1ccccc1 Test system: Plasmodium falciparum NF54-HGL (transmission to Anopheles stephensi) Read-out: percentage of barcode signal found in uninfected mosquitoes Value: ?
Key: 27.2

Exercise: Item: FC(F)(F)c1cc(NCCc2ccccc2)nc(-c2ccccn2)n1 Test system: Plasmodium falciparum NF54-HGL (transmission to Anopheles stephensi) Read-out: percentage of barcode signal found in uninfected mosquitoes Value: ?
Key: 62.2

Exercise: Item: Cc1cc(NCCc2ccccc2)nc(NC(=N)Nc2ccc(Cl)cc2)n1 Test system: Plasmodium falciparum NF54-HGL (transmission to Anopheles stephensi) Read-out: percentage of barcode signal found in uninfected mosquitoes Value: ?
Key: 75.8

Exercise: Item: N=C(N)Nc1ccc(-c2ccc(-c3ccc(NC(=N)N)cc3Cl)o2)c(Cl)c1 Test system: Plasmodium falciparum NF54-HGL (transmission to Anopheles stephensi) Read-out: percentage of barcode signal found in uninfected mosquitoes Value: ?
Key: 39.3

Exercise: Item: O=C(NCCc1ccccc1)c1cc(-c2cccnc2)cnc1NCC1CC1 Test system: Plasmodium falciparum NF54-HGL (transmission to Anopheles stephensi) Read-out: percentage of barcode signal found in uninfected mosquitoes Value: ?
Key: 2.28

More entries:
Exercise: Item: CCOC(=O)c1noc(N)c1-c1ccccc1 Test system: Plasmodium falciparum NF54-HGL (transmission to Anopheles stephensi) Read-out: percentage of barcode signal found in uninfected mosquitoes Value: ?
Key: 25.4

Exercise: Item: COc1ccc2nc(C)cc(OCC(=O)NCc3ccccc3)c2c1 Test system: Plasmodium falciparum NF54-HGL (transmission to Anopheles stephensi) Read-out: percentage of barcode signal found in uninfected mosquitoes Value: ?
Key: 2.14

Exercise: Item: Cc1cc(C)c2cc(C(=O)NC3CCCCCCC3)[nH]c2c1 Test system: Plasmodium falciparum NF54-HGL (transmission to Anopheles stephensi) Read-out: percentage of barcode signal found in uninfected mosquitoes Value: ?
Key: 0.265

Exercise: Item: Nc1ncc(Br)cc1-c1nc2cc(Cl)cnc2[nH]1 Test system: Plasmodium falciparum NF54-HGL (transmission to Anopheles stephensi) Read-out: percentage of barcode signal found in uninfected mosquitoes Value: ?
Key: 21.4

Exercise: Item: Cc1ccc(-c2nc(CN(Cc3ccccn3)C(C)C)cs2)o1 Test system: Plasmodium falciparum NF54-HGL (transmission to Anopheles stephensi) Read-out: percentage of barcode signal found in uninfected mosquitoes Value: ?
Key: 81.4
